From: paper PMC12136788

Below, each entry is listed alongside its reported binding signal.
TARGET_OR_TEST_SYSTEM: T1, UNK ZnF1-3 (human, UniProt Q9C0B0 31-174)
T1 sequence: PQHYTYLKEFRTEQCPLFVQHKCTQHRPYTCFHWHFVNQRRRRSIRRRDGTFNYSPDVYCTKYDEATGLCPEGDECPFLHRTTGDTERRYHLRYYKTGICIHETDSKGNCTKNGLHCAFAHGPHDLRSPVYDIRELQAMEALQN
ASSAY_EXPLANATION: nsRBNS (natural sequence RNA bind-n-seq); RBNS binding buffer (assumed for nsRBNS): 25 mM Tris pH 7.5, 150 mM KCl, 3 mM MgCl2, 0.01% Triton X-100, 500 ug/ml BSA, 20 U/ml SUPERase-In, 4 C; UNK is unkempt and MSI1 is Musashi-1; names of the RNAs are library labels; protein concentration not given here; high values mean tight binding
The full ranking holds about 24,000 sequences; the median of “enrichment r” is about 0.99, and the highest 2% start at about 3.7. The full list was thinned out, with the highest values kept by preference.
Report only the number, with the unit enrichment R understood.

// query # get_value(readout='binding signal', item= chr1:241675328:241675329:-_ENSG00000091483_ENST00000366560|hu_mus|FALSE|FALSE (ssRNA) RNA: GGGAGUUCUACAGUCCGACGAUCGCUUUUGUUAACAUGAUCAUUGGGGUGCACAGGCUUCUUGCUGCCAAGUUCACCUCCUAACAUUUCAAUUGCUCUGUUGCUAAUGACUUCAUUUACAUUCAUGUUUGUCUGGGUUCCUGACAACAGAGGAUUGAGCAUCA )
// result 0.274

// query What value of binding signal has been recorded for this entry: chr1:39494564:39494565:+_ENSG00000168653_ENST00000372967|hu_hu|motif|central (ssRNA) RNA: GGGAGUUCUACAGUCCGACGAUCACCUGCACGUCUCAUCGUUUUCUGCCGAAGCAAACACUCUACGAAAUCAUCAUAUUCGGUCUUGCACUCUUUCUCUGCCCGAGUAUAACCGAUUCCAUGUGCACAUUCUAUCCAUUCUUUCAACAGAGGAUUGAGCAUCA
// result 0.521

// query Item under review: chr1:39494447:39494448:+_ENSG00000168653_ENST00000372967|hu_mus|hu_hu_hu_mus_False|68_88 (ssRNA) RNA: GGGAGUUCUACAGUCCGACGAUCGCACCGAGCGGCGUUCUUAUAGGGCUGUUCACCGCUUAGGAACGUCAACCAUCGGUCCAGGCUGAUGCCCAGCUUUUUCUGUAUGUCAAGGAAAGGCAUGGCUCUGCAGUGCCCUUGUCACAACAGAGGAUUGAGCAUCA . Reported binding signal?
// result 0.613

// query Which binding signal is listed for chr2:242098653:242098654:+_ENSG00000115685_ENST00000406106|hu_mus|FALSE|FALSE (ssRNA) RNA: GGGAGUUCUACAGUCCGACGAUCAUCAUAGAGAUCCAGUUCUCGAAGACUCUGCAGUUCUUCCAGGUUUUCAAUGCAUUUAAUUAGGUUUUGACGAAGGCAGAGUGACUUCACUUUCUUUAGCACCUCCAAGCCUUCAAUCUUCAACAGAGGAUUGAGCAUCA ?
// result 0.6

// query Suppose we examine the binder chr6:74304526:74304527:-_ENSG00000119899_ENST00000355773|hu_hu|motif|central (ssRNA) RNA: GGGAGUUCUACAGUCCGACGAUCUAAUUAAGCAAAGGUAUCAGGAGGUCUGUUUCAGCUCAUUCCCUUUAGUAUGGCCCGGAAAAAUCAACAGAACUGUCCUACUUCAUGUUGCCCGACUAGCAGGCAGGUAUGUGAACCUAACAACAGAGGAUUGAGCAUCA ; what binding signal value has been reported?
// result 0.917

// query So what's the measured binding signal for this one? chr16:45382771:45382772:-_ENSMUSG00000022661_ENSMUST00000163230|mus_mus|mus_mus_mus_hu_True|28_68 (ssRNA) RNA: GGGAGUUCUACAGUCCGACGAUCCUGGGUCAUGUUAUAAGACAAAUGGACAGGGAGGGCAUGCUUCUGUAAAGAUGUGAGCUAUUGUCUAAGACUAACAAUAUUUACUAAGUGCUAAAAAUAAGUUAAAUGAAUAAGUUAAGACAACAGAGGAUUGAGCAUCA
// result 6.96

// query Can you look up the measured binding signal of chr12:48362563:48362564:+_ENSG00000134291_ENST00000256686|hu_hu|hu_hu_hu_mus_False|58_78 (ssRNA) RNA: GGGAGUUCUACAGUCCGACGAUCUCCGUCAAGCCCUUCGAUAGACCCUUGCGGGGGUGGUAAAAACCACUUUGUAUUUCUAAAAAAAAGAAACGCCAAAAACUUUCCAAAAAGCGGGGGUGGGGUGAGGCGGGAGGGGGAGGUCAACAGAGGAUUGAGCAUCA for me?
// result 3.57
